All values here come from ChEMBL document CHEMBL1156272.

target: Cathepsin S (Homo sapiens); assay: Inhibition of cathepsin S in human JY cells assessed as accumulation of invariant chain p10 fragment after 24 hrs by Western blot analysis; type: cell-based
IC50 listing for selected molecules.
MEASURE NAME: IC50 (nM)

1. CS(=O)(=O)N1CCc2c(c(-c3ccc(C(F)(F)F)c(SCCN4CCC(F)CC4)c3)nn2C[C@@H](O)CN2CCCCC2)C1; 120
2. O=C(c1nc[nH]n1)N1CCc2c(c(-c3ccc(C(F)(F)F)c(SCCN4CCC(F)CC4)c3)nn2C[C@@H](O)CN2CCCCC2)C1; 320
3. CS(=O)(=O)N1CCc2c(c(-c3ccc(C(F)(F)F)c(SCCN4CCCCC4)c3)nn2CC(O)CN2CCCC2)C1 (racemic); 401
4. CS(=O)(=O)N1CCc2c(c(-c3ccc(C(F)(F)F)c(SCCN4CCCCC4)c3)nn2CC(O)CN2CCCCC2)C1 (racemic); 335
5. CS(=O)(=O)N1CCc2c(c(-c3ccc(C(F)(F)F)c(SCCN4CCCC4)c3)nn2CC(O)CN2CCCCC2)C1 (racemic); 458
6. CS(=O)(=O)N1CCc2c(c(-c3ccc(C(F)(F)F)c(SCCN4CCC(F)CC4)c3)nn2CC(O)CN2CCCCC2)C1 (racemic); 493
7. CS(=O)(=O)N1CCc2c(c(-c3ccc(C(F)(F)F)c(SCCN4CCCCC4)c3)nn2CC(O)CN2CCN(C3CC3)CC2)C1 (racemic); 220

----------
pIC50 listing for selected molecules.
biological target: Cathepsin S (Homo sapiens); assay: Inhibition of cathepsin S in human JY cells assessed as accumulation of invariant chain p10 fragment after 24 hrs by Western blot analysis; format: cell-based
pIC50: −log10 of the molar value.
MEASURE NAME: pIC50

1) CS(=O)(=O)N1CCc2c(c(-c3ccc(C(F)(F)F)c(SCCN4CCC(F)CC4)c3)nn2C[C@H](O)CN2CCCCC2)C1; 6.09
2) CS(=O)(=O)N1CCc2c(c(-c3ccc(C(F)(F)F)c(SCCN4CCCCC4)c3)nn2CC(O)CN2CCC(C(=O)N3CCCC3)CC2)C1 (racemic); 7.02
3) CS(=O)(=O)N1CCc2c(c(-c3ccc(C(F)(F)F)c(SCCN4CCOCC4)c3)nn2CC(O)CN2CCCCC2)C1 (racemic); 5.60
4) CS(=O)(=O)N1CCc2c(c(-c3ccc(C(F)(F)F)c(SCCN4CCCCC4)c3)nn2CC(O)CN2CCC(C3CCCC3)CC2)C1 (racemic); 7.09
5) CS(=O)(=O)N1CCc2c(c(-c3ccc(C(F)(F)F)c(SCCN4CCCCC4)c3)nn2CC(O)CN2CCC(c3ccccn3)CC2)C1 (racemic); 7.21
6) NC(=O)C(=O)N1CCc2c(c(-c3ccc(C(F)(F)F)c(SCCN4CCC(F)CC4)c3)nn2C[C@@H](O)CN2CCCCC2)C1; 6.72
7) CS(=O)(=O)N1CCc2c(c(-c3ccc(C(F)(F)F)c(SCCN4CCCCC4)c3)nn2CC(O)CN2CCOCC2)C1 (racemic); 6.05
8) CS(=O)(=O)N1CCc2c(c(-c3ccc(C(F)(F)F)c(SCCN4CCCCC4)c3)nn2CC(O)CN2CCC(N3CCCC3=O)CC2)C1 (racemic); 6.82
9) CS(=O)(=O)N1CCc2c(c(-c3ccc(C(F)(F)F)c(SCCN4CCCCC4)c3)nn2CC(O)CN2CCC(c3ccccc3C#N)CC2)C1 (racemic); 6.80

----------
molecular target: UniProtKB P25774; test: Inhibition of human cathepsin S by ADAM-28 substrate-based fluorescence assay
pIC50: −log10 of the molar value.
MEASURE NAME: pIC50

1. CS(=O)(=O)N1CCc2c(c(-c3ccc(C(F)(F)F)c(SCCN4CCC(F)CC4)c3)nn2C[C@H](O)CN2CCCCC2)C1; 6.40
2. CS(=O)(=O)N1CCc2c(c(-c3ccc(C(F)(F)F)c(SCCN4CCCCC4)c3)nn2CC(O)CN2CCCC2)C1 (racemic); 6.47
3. CS(=O)(=O)N1CCc2c(c(-c3ccc(C(F)(F)F)c(SCCN)c3)nn2CC(O)CN2CCCCC2)C1 (racemic); 5.95
4. CS(=O)(=O)N1CCc2c(c(-c3ccc(C(F)(F)F)c(SCCN4CCCCC4)c3)nn2CC(O)CN2CCC(c3ccccc3C#N)CC2)C1 (racemic); 8.00

----------
molecular target: Cathepsin S (Homo sapiens, UniProt P25774); test: Inhibition of human cathepsin S by ADAM-28 substrate-based fluorescence assay
Sequence (P25774 whole entry, the tested form may be a part): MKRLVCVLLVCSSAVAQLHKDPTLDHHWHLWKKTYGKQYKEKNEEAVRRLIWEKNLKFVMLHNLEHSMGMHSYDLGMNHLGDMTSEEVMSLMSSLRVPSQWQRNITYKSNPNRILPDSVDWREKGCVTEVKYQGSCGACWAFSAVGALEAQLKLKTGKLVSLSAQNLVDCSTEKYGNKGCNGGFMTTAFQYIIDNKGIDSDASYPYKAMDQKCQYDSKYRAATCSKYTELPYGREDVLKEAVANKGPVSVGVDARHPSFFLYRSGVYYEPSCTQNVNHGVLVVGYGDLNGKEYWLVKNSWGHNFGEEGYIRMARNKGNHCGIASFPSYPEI
pIC50: −log10 of the molar value.
MEASURE NAME: pIC50

1) CC(O)C(=O)N1CCc2c(c(-c3ccc(C(F)(F)F)c(SCCN4CCC(F)CC4)c3)nn2C[C@@H](O)CN2CCCCC2)C1 (some centres undefined); 6.61
2) CS(=O)(=O)N1CCc2c(c(-c3ccc(C(F)(F)F)c(SCCN4CCOCC4)c3)nn2CC(O)CN2CCCCC2)C1 (racemic); 6.38
3) NC(=O)N1CCc2c(c(-c3ccc(C(F)(F)F)c(SCCN4CCC(F)CC4)c3)nn2C[C@@H](O)CN2CCCCC2)C1; 6.63
4) CS(=O)(=O)N1CCc2c(c(-c3ccc(C(F)(F)F)c(SCCN4CCCCC4)c3)nn2CC(O)CN2CCCCC2)C1 (racemic); 6.69
5) CS(=O)(=O)N1CCc2c(c(-c3ccc(C(F)(F)F)c(SCCN4CCC(F)CC4)c3)nn2C[C@@H](O)CN2CCCCC2)C1; 7.24
6) OC(CN1CCCCC1)Cn1nc(-c2ccc(C(F)(F)F)c(SCCN3CCC(F)CC3)c2)c2c1CCNC2 (centres undefined); 5.02
7) CS(=O)(=O)N1CCc2c(c(-c3ccc(C(F)(F)F)c(SCCN4CCCCC4)c3)nn2CC(O)CN2CCC(C3CCCC3)CC2)C1 (racemic); 6.66
8) NC(=O)C(=O)N1CCc2c(c(-c3ccc(C(F)(F)F)c(SCCN4CCC(F)CC4)c3)nn2C[C@@H](O)CN2CCCCC2)C1; 7.15
9) CC(=O)N1CCc2c(c(-c3ccc(C(F)(F)F)c(SCCN4CCC(F)CC4)c3)nn2C[C@@H](O)CN2CCCCC2)C1; 6.41
10) CCCNCC(O)Cn1nc(-c2ccc(C(F)(F)F)c(SCCN3CCCCC3)c2)c2c1CCN(S(C)(=O)=O)C2 (racemic); 6.23
11) CS(=O)(=O)N1CCc2c(c(-c3ccc(C(F)(F)F)c(SCCN4CCCCC4)c3)nn2CC(O)CN2CCOCC2)C1 (racemic); 6.49
12) O=C(c1cccs1)N1CCc2c(c(-c3ccc(C(F)(F)F)c(SCCN4CCC(F)CC4)c3)nn2C[C@@H](O)CN2CCCCC2)C1; 6.45
13) O=C(c1nc[nH]n1)N1CCc2c(c(-c3ccc(C(F)(F)F)c(SCCN4CCC(F)CC4)c3)nn2C[C@@H](O)CN2CCCCC2)C1; 6.69
14) O=C(CO)N1CCc2c(c(-c3ccc(C(F)(F)F)c(SCCN4CCC(F)CC4)c3)nn2C[C@@H](O)CN2CCCCC2)C1; 6.63
